TEST_SYSTEM: Recombinant human his-tagged IGF 1R extracellular domain protein (human) (UniProt P08069)
PROTOCOL: SPR, captured IgG, IGF-1R ECD-his analyte, dissociation pH 6
# maps each entry to its log10 koff
MEASURED_QUANTITY: log10 koff (log10 of the value in s⁻¹)

1) VRDN-02510 (antibody, V domains shown) VH: EVQLVQSGGGLVKPGGSLRLSCAASGFTFSSFAMHWVRQAPGKGLEWISVIHTRGATYYADSVKGRFTISRDNAKNSLYLQMNSLRAEDTAVYYCARLGNFYYGMDVWGQGTTVTVSS VL: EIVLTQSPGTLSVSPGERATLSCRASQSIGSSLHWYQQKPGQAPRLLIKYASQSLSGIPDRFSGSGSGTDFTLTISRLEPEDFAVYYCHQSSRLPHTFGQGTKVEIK: -3.94
2) VRDN-02519 (antibody, V domains shown) VH: EVQLVQSGGGLVKPGGSLRLSCAASGFTFSSFAMHWVRQAPGKGLEWISVIDTRGATYYADSVKGRFTISRDNAKNSLYLQMNSLRAEDTAVYYCARLHNFYYGMDVWGQGTTVTVSS VL: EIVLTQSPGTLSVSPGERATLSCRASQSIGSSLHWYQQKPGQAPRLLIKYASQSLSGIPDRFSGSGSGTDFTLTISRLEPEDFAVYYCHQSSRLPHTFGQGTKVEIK: -3.20
3) VRDN-02507 (antibody, V domains shown) VH: EVQLVQSGGGLVKPGGSLRLSCAASGFTFSSHAMHWVRQAPGKGLEWISVIDTRGATYYADSVKGRFTISRDNAKNSLYLQMNSLRAEDTAVYYCARLGNFYYGMDVWGQGTTVTVSS VL: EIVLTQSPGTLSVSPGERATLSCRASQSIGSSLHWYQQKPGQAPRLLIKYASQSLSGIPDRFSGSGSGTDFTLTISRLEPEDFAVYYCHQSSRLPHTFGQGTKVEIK: -6.00
4) VRDN-02534 (antibody, V domains shown) VH: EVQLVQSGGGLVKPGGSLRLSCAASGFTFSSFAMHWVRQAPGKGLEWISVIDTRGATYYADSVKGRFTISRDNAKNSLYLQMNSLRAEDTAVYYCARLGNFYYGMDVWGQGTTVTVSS VL: EIVLTQSPGTLSVSPGERATLSCRASQSIHSSLHWYQQKPGQAPRLLIKYASQSLSGIPDRFSGSGSGTDFTLTISRLEPEDFAVYYCHQSSRLPHTFGQGTKVEIK: -5.93
5) VRDN-02553 (antibody, V domains shown) VH: EVQLVQSGGGLVKPGGSLRLSCAASGFTFSSFHMHWVRQAPGKGLEWISVIDTRGATYYADSVKGRFTISRDNAKNSLYLQMNSLRAEDTAVYYCARLGNFYYGMDVWGQGTTVTVSS VL: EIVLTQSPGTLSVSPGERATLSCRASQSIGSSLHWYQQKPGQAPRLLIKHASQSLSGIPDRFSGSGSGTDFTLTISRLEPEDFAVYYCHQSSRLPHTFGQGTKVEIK: -3.27
6) VRDN-02515 (antibody, V domains shown) VH: EVQLVQSGGGLVKPGGSLRLSCAASGFTFSSFAMHWVRQAPGKGLEWISVIDTRGAHYYADSVKGRFTISRDNAKNSLYLQMNSLRAEDTAVYYCARLGNFYYGMDVWGQGTTVTVSS VL: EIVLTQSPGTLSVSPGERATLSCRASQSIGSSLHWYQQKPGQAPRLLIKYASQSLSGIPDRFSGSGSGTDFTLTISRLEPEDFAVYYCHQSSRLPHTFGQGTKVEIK: -4.16
7) VRDN-02501 (antibody, V domains shown) VH: EVQLVQSGGGLVKPGGSLRLSCAASHFTFSSFAMHWVRQAPGKGLEWISVIDTRGATYYADSVKGRFTISRDNAKNSLYLQMNSLRAEDTAVYYCARLGNFYYGMDVWGQGTTVTVSS VL: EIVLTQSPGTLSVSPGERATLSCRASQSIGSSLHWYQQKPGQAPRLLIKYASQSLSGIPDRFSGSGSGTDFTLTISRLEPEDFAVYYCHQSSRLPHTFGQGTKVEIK: -6.00
8) VRDN-02568 (antibody, V domains shown) VH: EVQLVQSGGGLVKPGGSLRLSCAASGFTFSSFHMHWVRQAPGKGLEWISVIHTRGATYYADSVKGRFTISRDNAKNSLYLQMNSLRAEDTAVYYCARLGNFYYGHDVWGQGTTVTVSS VL: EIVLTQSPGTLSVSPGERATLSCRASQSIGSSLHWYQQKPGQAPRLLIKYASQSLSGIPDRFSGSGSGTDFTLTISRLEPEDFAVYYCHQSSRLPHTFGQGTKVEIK: -3.89
9) VRDN-02513 (antibody, V domains shown) VH: EVQLVQSGGGLVKPGGSLRLSCAASGFTFSSFAMHWVRQAPGKGLEWISVIDTRHATYYADSVKGRFTISRDNAKNSLYLQMNSLRAEDTAVYYCARLGNFYYGMDVWGQGTTVTVSS VL: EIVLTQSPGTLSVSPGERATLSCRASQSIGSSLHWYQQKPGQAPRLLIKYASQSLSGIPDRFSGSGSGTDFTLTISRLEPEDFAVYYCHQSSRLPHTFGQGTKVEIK: -6.00
10) VRDN-02542 (antibody, V domains shown) VH: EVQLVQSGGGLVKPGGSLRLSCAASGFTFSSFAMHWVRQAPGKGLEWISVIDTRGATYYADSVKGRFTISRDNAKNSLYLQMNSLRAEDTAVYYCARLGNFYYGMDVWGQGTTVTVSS VL: EIVLTQSPGTLSVSPGERATLSCRASQSIGSSLHWYQQKPGQAPRLLIKYASHSLSGIPDRFSGSGSGTDFTLTISRLEPEDFAVYYCHQSSRLPHTFGQGTKVEIK: -6.00
